B1: CHCHD3 (parent)
chain: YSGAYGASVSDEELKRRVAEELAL

Variants of: B1
Assay: protein stability index of a GFP-peptide fusion (GPS, HEK-293T) (PSI 1-6); higher = more stable;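 also: lentivirally expressed fusions sorted by FACS into six bins by GFP to DsRed ratio, PSI derived from sequencing read proportions per bin multiplied by bin number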
Details: c terminus: a fixed tail appended
Measured quantity: protein stability index

Y5S | 4.99
R17N | 2.61
E13D | 2.9
Y5K | 4.14
S8R | 2.88
R17L | 2.76
S2T | 2.27
E12Q | 2.09
Y5G | 4.92
E20R | 2.49
R17G | 2.36
